Consider the following molecules; for each one, report its residual activity.
Molecular target: Serine/threonine-protein kinase STK11 (Homo sapiens) (UniProt Q15831)
Sequence (whole entry): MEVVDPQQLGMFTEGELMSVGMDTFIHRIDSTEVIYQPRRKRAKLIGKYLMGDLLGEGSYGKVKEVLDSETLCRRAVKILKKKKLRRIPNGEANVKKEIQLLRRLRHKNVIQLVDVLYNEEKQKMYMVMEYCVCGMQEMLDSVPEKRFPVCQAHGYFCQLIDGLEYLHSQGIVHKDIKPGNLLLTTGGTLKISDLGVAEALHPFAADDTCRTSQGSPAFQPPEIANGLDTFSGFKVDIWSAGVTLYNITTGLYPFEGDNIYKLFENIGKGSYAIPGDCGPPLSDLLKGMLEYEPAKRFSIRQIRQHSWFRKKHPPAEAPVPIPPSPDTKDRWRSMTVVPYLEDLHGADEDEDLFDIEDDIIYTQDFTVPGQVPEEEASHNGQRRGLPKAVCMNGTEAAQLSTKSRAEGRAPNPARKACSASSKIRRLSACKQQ
Conditions: at 10 µM
One number for each entry, in %.

Known results for molecules:
[in] Item COc1cc2ncnc(Nc3ccc(Oc4ccccc4)cc3)c2cc1OC : provide residual activity
[out] 93

[in] Using known records, supply residual activity for O=C(O)c1ccc2c3c1cccc3c(=O)n1c3ccccc3nc21
[out] 95

[in] Complete the entry with residual activity for O=Nc1c(-c2c(O)[nH]c3ccccc23)[nH]c2ccccc12
[out] 44

[in] Recall and state the measured residual activity for COc1cc2ncnc(N3CCN(C(=O)Nc4ccc(Oc5ccccc5)cc4)CC3)c2cc1OC .
[out] 89

[in] Answer with the recorded residual activity of Oc1n[nH]c2nnc(-c3c(-c4ccccc4)nn4ccccc34)cc12 only.
[out] 96

[in] Please give measured residual activity of the following entry: Cn1nc2c3c(cccc31)C(=O)c1ccccc1-2
[out] 84

[in] Kindly indicate its recorded residual activity. Item: Cc1cccc(-c2[nH]c(C(C)(C)C)nc2-c2ccc3c(c2)OCO3)n1
[out] 101

[in] Give residual activity for Cc1ccc(NC2=CC(=O)c3sc(C)nc3C2=O)cc1
[out] 98

Respectfully, I request residual activity for each entry included below.
1. CO[C@H]1C[C@@H]2CC[C@@H](C)[C@@](O)(O2)C(=O)C(=O)N2CCCC[C@H]2C(=O)O[C@H]([C@H](C)C[C@@H]2CC[C@@H](O)[C@H](OC)C2)CC(=O)[C@H](C)/C=C(\C)[C@@H](O)[C@@H](OC)C(=O)[C@H](C)C[C@H](C)/C=C/C=C/C=C/1C
2. CO[C@@H]1[C@H](N(C)C(=O)c2ccccc2)C[C@H]2O[C@]1(C)n1c3ccccc3c3c4c(c5c6ccccc6n2c5c31)C(=O)NC4
3. Oc1ccc(-c2nc(-c3ccc(F)cc3)c(-c3ccncc3)[nH]2)cc1
4. Cc1ccc(S(=O)(=O)/C=C/C#N)cc1
5. c1ccc2c(-c3ccncc3)c[nH]c2c1
6. CC[n+]1c(/C=C/N(C)c2ccccc2)n(-c2ccccc2)c2ccc(-c3nc4ccccc4s3)cc21

[out]
99
93
99
100
90
104

List reported residual activity for each of these molecules:
1. Cn1cnc2cc3c(Nc4cccc(Br)c4)ncnc3cc21
2. Cc1nc2cc3nc(-c4cccs4)cnc3cc2n1C
3. CCN(CC)CCCCN1c2ccccc2Oc2ccc(Cl)cc21
4. O=c1c2ccccc2[nH]c(=S)n1CCN1CCC(=C(c2ccc(F)cc2)c2ccc(F)cc2)CC1
5. C[C@@H](N)[C@H]1CC[C@H](C(=O)Nc2ccncc2)CC1
6. O=C1NC(=O)c2cc(Nc3ccc(F)cc3)c(Nc3ccc(F)cc3)cc21
7. O=[N+]([O-])c1ccc(-c2nc(-c3ccc(F)cc3)c(-c3ccncc3)[nH]2)cc1
8. Nc1n[nH]c2nnc(-c3c(-c4ccccc4)nn4ccccc34)cc12

[out]
1. 99
2. 107
3. 94
4. 128
5. 96
6. 93
7. 99
8. 94

---

target: Serine/threonine-protein kinase PAK 2 (Homo sapiens); details: at 10 µM
property_name: residual activity (%)
Answers are plain numbers, in %.

Consider the worked cases shown below.
[in] Report residual activity, nothing else, for this molecule: COc1cc2ncnc(Nc3ccc(NC(=O)c4ccccc4)cc3)c2cc1OC
[out] 89

[in] Please give the documented residual activity of O=[N+]([O-])c1ccc(-c2nc(-c3ccc(F)cc3)c(-c3ccncc3)[nH]2)cc1
[out] 101

[in] Output measured residual activity for this item: Cn1nc2c3c(cccc31)C(=O)c1ccccc1-2
[out] 98

Return reported residual activity values for all items listed beneath this line.
1. Cc1cncc2cccc(S(=O)(=O)N3CCCN(C(=O)CN)C[C@H]3C)c12
2. N#C/C(=C(\N)Sc1ccc(N)cc1)c1ccccc1C(F)(F)F

[out]
[82, 98]

---

Would you mind telling me the reported residual activity of each entry?
target: Serine/threonine-protein kinase BRSK1 (Homo sapiens); details: at 10 µM

[in] Dear colleague, please send me the reported residual activity for O=C1Nc2cc(Br)ccc2/C1=C1/Nc2ccccc2/C1=N\O when you can.
[out] 12%

[in] Kindly indicate its recorded residual activity. Item: CC#CC(=O)Nc1cc2c(Nc3ccc(F)c(Cl)c3)ncnc2cn1
[out] 81%

[in] Quote residual activity reported for NC(=O)c1ccc2[nH]c(-c3ccc(Oc4ccc(Cl)cc4)cc3)nc2c1 please.
[out] 81%

[in] Report residual activity, nothing else, for this compound: Oc1c2ccccc2c2c3c(cccc13)N=N2
[out] 29%

[in] Quickly give me recorded residual activity for Oc1ccc(-c2nc(-c3ccc(F)cc3)c(-c3ccncc3)[nH]2)cc1
[out] 63%

In the following, a different compound is considered.
[in] Let me know recorded residual activity for COc1ccc(S(=O)(=O)N(CCO)c2ccccc2CN(C)C/C=C/c2ccc(Cl)cc2)cc1 , thanks.
[out] 63%

---

Give residual activity for every item shown.
molecular target: Tyrosine-protein kinase JAK3 (Homo sapiens); conditions: at 1 µM
Give bare numbers, in %.

As a guide, the following entries are already answered.
[in] System Tyrosine-protein kinase JAK3 (Homo sapiens). Read-out residual activity. Item Cc1cncc2cccc(S(=O)(=O)N3CCCN(C(=O)CN)C[C@H]3C)c12 . Report value.
[out] 92

[in] Print Tyrosine-protein kinase JAK3 (Homo sapiens) residual activity for CCOc1cc2ncnc(Nc3cccc(Br)c3)c2cc1OCC .
[out] 105

Please supply residual activity for each of the following items, keeping them in order.
1. Nc1cccc(-c2cc3c(Oc4cccc(O)c4)ncnc3[nH]2)c1
2. COc1cc2ncnc(Nc3ccc(O)c(Br)c3)c2cc1OC
3. O=c1c2ccccc2[nH]c(=S)n1CCN1CCC(=C(c2ccc(F)cc2)c2ccc(F)cc2)CC1
4. O=C1c2ccccc2-[n+]2ccc3c([nH]c4ccccc43)c21
5. CCC(=O)Nc1ccc2ncnc(Nc3cccc(Br)c3)c2c1

[out]
[83, 93, 97, 109, 99]

Batch request: residual activity per item, same order as input.
1. O=C1NC(=O)c2cc(Nc3ccc(F)cc3)c(Nc3ccc(F)cc3)cc21
2. COc1cc2ncnc(N3CCN(C(=O)Nc4ccc(Oc5ccccc5)cc4)CC3)c2cc1OC
3. Ic1cccc(CSc2nnc(-c3ccncc3)o2)c1

[out]
[100, 97, 102]

---

biological target: BDNF/NT-3 growth factors receptor (Homo sapiens) (UniProt Q16620); conditions: at 1 µM
Sequence (Q16620 32-822 limits assumed): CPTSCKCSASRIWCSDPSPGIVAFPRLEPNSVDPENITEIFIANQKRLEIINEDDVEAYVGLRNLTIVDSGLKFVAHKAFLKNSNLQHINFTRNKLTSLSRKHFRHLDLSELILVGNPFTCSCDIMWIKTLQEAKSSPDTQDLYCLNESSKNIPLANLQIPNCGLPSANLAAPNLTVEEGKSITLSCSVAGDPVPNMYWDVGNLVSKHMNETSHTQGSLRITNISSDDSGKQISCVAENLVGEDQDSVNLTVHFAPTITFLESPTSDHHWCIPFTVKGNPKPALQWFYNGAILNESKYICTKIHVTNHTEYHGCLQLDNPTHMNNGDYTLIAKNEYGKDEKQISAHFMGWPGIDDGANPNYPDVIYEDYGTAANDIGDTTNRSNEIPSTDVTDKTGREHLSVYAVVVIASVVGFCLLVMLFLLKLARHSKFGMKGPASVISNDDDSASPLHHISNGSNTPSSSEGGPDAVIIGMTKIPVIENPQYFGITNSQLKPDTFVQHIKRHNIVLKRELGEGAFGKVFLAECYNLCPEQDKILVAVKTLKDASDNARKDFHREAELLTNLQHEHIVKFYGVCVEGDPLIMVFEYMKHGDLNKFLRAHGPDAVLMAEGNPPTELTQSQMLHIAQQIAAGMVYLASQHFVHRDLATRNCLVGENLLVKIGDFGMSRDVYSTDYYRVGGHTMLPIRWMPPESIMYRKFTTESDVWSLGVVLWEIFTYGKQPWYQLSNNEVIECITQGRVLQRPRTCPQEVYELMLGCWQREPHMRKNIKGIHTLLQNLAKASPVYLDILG
Please respond with TRUE when measured residual activity is strictly beneath 90%, and with FALSE in all other cases.

Use the examples below as a reference point.
[in] Item CO[C@H]1C[C@@H]2CC[C@@H](C)[C@@](O)(O2)C(=O)C(=O)N2CCCC[C@H]2C(=O)O[C@H]([C@H](C)C[C@@H]2CC[C@@H](O)[C@H](OC)C2)CC(=O)[C@H](C)/C=C(\C)[C@@H](O)[C@@H](OC)C(=O)[C@H](C)C[C@H](C)/C=C/C=C/C=C/1C : residual activity beneath 90%, strictly?
[out] FALSE

[in] Determine whether this molecule shows residual activity lower than 90% (ties excluded): Oc1n[nH]c2nnc(-c3c(-c4ccccc4)nn4ccccc34)cc12
[out] FALSE

[in] residual activity under 90%? Item: O=C1NC(=O)c2cc(Nc3ccc(F)cc3)c(Nc3ccc(F)cc3)cc21
[out] FALSE

[in] Lab note: confirm whether the reported residual activity for this molecule is below 90%, equality not counting. molecule: CCOc1cc2ncnc(Nc3cccc(Br)c3)c2cc1OCC
[out] FALSE

[in] Just wondering, is residual activity of COc1cc2ncnc(Nc3ccc(O)c(Br)c3)c2cc1OC below 90%?
[out] FALSE

More entries:
[in] Is the reported residual activity for O=c1c2ccccc2[nH]c(=S)n1CCN1CCC(=C(c2ccc(F)cc2)c2ccc(F)cc2)CC1 strictly below 90%?
[out] TRUE

[in] residual activity under 90%? Item: O=C1NC(=O)c2c1c1c3ccccc3[nH]c1c1[nH]c3cc(Br)ccc3c21
[out] TRUE
